target: delta opioid receptor (NG108-15 cell membranes) (Mus musculus, UniProt P32300); construct: NG108-15 cell membranes were purchased from Applied Cell Sciences (Rockville, Md.); host or cells: NG108-15 cells (membranes purchased); assay: Delta Opioid Receptor Functional Assay: [35S]GTPγS Binding in NG108-15 Cell Membranes, Version 2; format: biochemical; conditions: NG108-15 cell membranes, version 2; % inhibition of agonist-stimulated GTPγS binding; also: test concentration or dose not given here
Sequence (P32300 whole entry): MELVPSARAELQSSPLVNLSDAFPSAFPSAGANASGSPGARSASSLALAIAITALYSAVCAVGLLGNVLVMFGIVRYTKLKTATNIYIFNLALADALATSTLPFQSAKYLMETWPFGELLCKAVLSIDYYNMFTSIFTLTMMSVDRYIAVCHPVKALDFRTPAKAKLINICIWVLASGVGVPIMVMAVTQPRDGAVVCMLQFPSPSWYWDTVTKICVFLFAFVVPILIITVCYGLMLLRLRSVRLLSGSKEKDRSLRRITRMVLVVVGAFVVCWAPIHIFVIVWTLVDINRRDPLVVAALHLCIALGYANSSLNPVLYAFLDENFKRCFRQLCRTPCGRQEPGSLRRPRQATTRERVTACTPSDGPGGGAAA
Below, each of the compounds is paired with its reported DOR GTP-binding Assay v2 (% I) value.
The number alone won't do; follow it with the unit.

1) COc1ccc(CN(C(=O)[C@@H](N)Cc2c(C)cc(C(N)=O)cc2C)[C@@H](C)c2nc(-c3ccccc3)c[nH]2)cc1C(=O)O; 100%

Lab book: DOR GTP-binding Assay v2 (% I) of COC(=O)c1ccc(CN(C(=O)[C@@H](N)Cc2c(C)cc(C(N)=O)cc2C)[C@@H](C)c2nc(-c3ccccc3)c[nH]2)cc1 noted as 66.04%

Lookup result for COC(=O)c1cc(CN(C(=O)[C@@H](N)Cc2c(C)cc(C(N)=O)cc2C)[C@@H](C)c2nc(-c3ccccc3)c[nH]2)ccn1 ; measured DOR GTP-binding Assay v2 (% I): 41.00%

###

target: delta opioid receptor (NG108-15 cell membranes) (Mus musculus); construct: NG108-15 cell membranes were purchased from Applied Cell Sciences (Rockville, Md.); host or cells: NG108-15 cells (membranes purchased); test: Delta Opioid Receptor Functional Assay: [35S]GTPγS Binding in NG108-15 Cell Membranes, Version 2; assay type: biochemical; details: NG108-15 cell membranes, version 2; % inhibition of agonist-stimulated GTPγS binding
# maps each entry to its DOR GTP-binding Assay v2 (% I)
State just the number; it will be interpreted in %.

1. COc1ccc(CN(C(=O)[C@@H](N)Cc2ccc(O)cc2)[C@@H](C)c2nc(-c3ccccc3)c[nH]2)cc1C(=O)O; 30.04
2. Cc1cc(O)cc(C)c1C[C@H](N)C(=O)N(Cc1ccc(OC(F)(F)F)cc1)[C@@H](C)c1nc(-c2ccccc2)c[nH]1; 31.72
3. COC(=O)c1ccc(CN(C(=O)[C@@H](N)Cc2c(C)cc(C(N)=O)cc2C)[C@@H](C)c2nc(-c3ccccc3)c[nH]2)o1; 48.88
4. COc1ccc(CN(C(=O)[C@@H](N)Cc2c(C)cc(C(N)=O)cc2C)[C@@H](C)c2nc(-c3ccccc3)c[nH]2)cc1-c1nnn[nH]1; 94.03
5. Cc1cc(O)cc(C)c1C[C@H](N)C(=O)N(Cc1ccc(C(=O)O)o1)[C@@H](C)c1nc(-c2ccccc2)c[nH]1; 84.50
6. COC(=O)c1ccc(CN(C(=O)[C@@H](N)Cc2ccc(C(N)=O)cc2)[C@@H](C)c2nc(-c3ccccc3)c[nH]2)o1; 23.85
7. COc1ccc(CN(Cc2nc(-c3ccccc3)c[nH]2)C(=O)[C@@H](N)Cc2ccc(C(N)=O)cc2)cc1C(=O)O; 47.12
8. COc1ccc(CN(C(=O)[C@@H](N)Cc2c(C)cc(C(N)=O)cc2C)[C@@H](C)c2nc(-c3ccc(I)cc3)c[nH]2)cc1C(=O)O; 86.27
9. COc1ccc(CN(C(=O)[C@@H](N)Cc2c(C)cc(C(N)=O)cc2C)[C@@H](C)c2nc(-c3ccccc3C(=O)O)c[nH]2)cc1OC; 79.05
10. COC(=O)c1cccc(CN(C(=O)[C@@H](N)Cc2c(C)cc(C(N)=O)cc2C)[C@@H](C)c2nc(-c3ccccc3)c[nH]2)n1; 49

Summary line: Cc1cc(C(N)=O)cc(C)c1C[C@H](N)C(=O)N(Cc1ccc(C(=O)O)cc1)[C@@H](C)c1nc(-c2ccccc2)c[nH]1 , delta opioid receptor (NG108-15 cell membranes) (Mus musculus), reported DOR GTP-binding Assay v2 (% I) = 60.27

Form: item COC(=O)c1cc(CN(C(=O)[C@@H](N)Cc2c(C)cc(C(N)=O)cc2C)[C@@H](C)c2nc(-c3ccccc3)c[nH]2)ccc1OC ; test system delta opioid receptor (NG108-15 cell membranes) (Mus musculus); DOR GTP-binding Assay v2 (% I): 68.64

Cc1cc(C(N)=O)cc(C)c1C[C@H](N)C(=O)N(Cc1cccc(-c2nnn[nH]2)c1)[C@@H](C)c1nc(-c2ccccc2)c[nH]1 on delta opioid receptor (NG108-15 cell membranes) (Mus musculus) gives DOR GTP-binding Assay v2 (% I) = 91.45

Source of measurements: patent US10213415B2
